Molecular target: PARG (Homo sapiens)
Assay: Inhibition of PARG enzymatic assay (TR-FRET enzymatic IC50 assay)
Type: biochemical
Design: purchased Peak Proteins
Conditions: hPARG 250 pM, biotinylated-PARylated PARP substrate 30 nM
Procedure: PARG enzyme was incubated with compound or vehicle (DMSO) and the biotinylated-PARylated PARP substrate in a microtiter plate. After adding detection antibody and streptavidin-europium, and then incubating, the plate was read for fluorescence intensity. The low control (DMSO) with low fluorescence intensity represents no inhibition of enzymatic reaction while the high control (no enzyme) with high fluorescence intensity represents full inhibition of enzymatic reaction. […]
This listing pairs molecules with measured IC50.

// fetch IC50 given entry CN1CC2CN(c3cc(S(=O)(=O)NC4(C#N)CC4)cc4c3cnn4-c3nnc(C(F)F)s3)CCN2C1=O (single isomer, unassigned) [Example 71]
≤ 100 nM

---

target: PARG (Homo sapiens, UniProt Q86W56); test: Inhibition of PARG enzymatic assay (TR-FRET enzymatic IC50 assay); assay type: biochemical; parameters: purchased Peak Proteins; details: hPARG 250 pM, biotinylated-PARylated PARP substrate 30 nM
Sequence (Q86W56 whole entry): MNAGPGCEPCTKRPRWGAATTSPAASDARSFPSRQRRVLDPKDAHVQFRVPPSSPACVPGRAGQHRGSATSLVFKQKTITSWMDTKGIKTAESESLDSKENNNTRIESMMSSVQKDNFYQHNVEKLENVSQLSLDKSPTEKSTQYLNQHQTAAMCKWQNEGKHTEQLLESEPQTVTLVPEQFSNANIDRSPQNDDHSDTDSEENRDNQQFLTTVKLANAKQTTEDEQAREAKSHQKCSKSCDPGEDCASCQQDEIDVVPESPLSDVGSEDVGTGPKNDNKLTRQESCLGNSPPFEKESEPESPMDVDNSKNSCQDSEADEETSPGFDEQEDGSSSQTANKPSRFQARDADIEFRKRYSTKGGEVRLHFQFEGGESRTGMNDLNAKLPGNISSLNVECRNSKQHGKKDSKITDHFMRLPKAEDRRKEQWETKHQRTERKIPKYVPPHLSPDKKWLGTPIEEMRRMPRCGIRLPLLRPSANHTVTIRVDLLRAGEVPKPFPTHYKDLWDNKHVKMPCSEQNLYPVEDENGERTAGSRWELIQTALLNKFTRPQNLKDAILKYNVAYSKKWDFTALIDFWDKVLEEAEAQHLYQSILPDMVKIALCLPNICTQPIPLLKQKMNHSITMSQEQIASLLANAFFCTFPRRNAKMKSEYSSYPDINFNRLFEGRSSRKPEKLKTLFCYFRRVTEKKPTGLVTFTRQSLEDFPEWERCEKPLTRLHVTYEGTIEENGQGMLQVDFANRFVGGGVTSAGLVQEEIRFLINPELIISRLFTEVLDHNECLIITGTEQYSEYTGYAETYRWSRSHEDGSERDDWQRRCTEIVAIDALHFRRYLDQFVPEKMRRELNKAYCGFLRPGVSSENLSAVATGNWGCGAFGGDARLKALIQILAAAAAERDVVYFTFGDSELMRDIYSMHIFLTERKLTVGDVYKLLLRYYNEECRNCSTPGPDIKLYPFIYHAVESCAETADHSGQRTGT
pIC50: −log10 of the molar value.
Readout: pIC50

Here's what some known entries look like.
molecule="N#CC1(NS(=O)(=O)c2cc(-c3cscn3)c3cnn(-c4nnc(C(F)F)s4)c3c2)CC1 [Example 13]" result="6.00 to 6.52"
molecule="N#CC1(NS(=O)(=O)c2cc(N3CCN(c4cccnn4)CC3)c3cnn(-c4nnc(C(F)F)s4)c3c2)CC1 [Example 95]" result="≥ 7.00"
molecule="N#CC1(NS(=O)(=O)c2cc(N3CCC4(CC3)COC4)c3cnn(-c4nnc(C(F)F)s4)c3c2)CC1 [Example 25]" result="≥ 7.00"

Look up and report measured pIC50 for this entry: Cn1cnc(-c2cc(S(=O)(=O)NC3(C#N)CC3)cc3c2cnn3-c2nnc(C(F)F)s2)c1 [Example 12]
6.00 to 6.52

Dear colleague, please send me the reported pIC50 for CN(C)C(=O)N1CCCN(c2cc(S(=O)(=O)NC3(C#N)CC3)cc3c2cnn3-c2nnc(C(F)F)s2)CC1 [Example 78] when you can.
6.52 to 7.00

Please give measured pIC50 of the following entry: N#CC1(NS(=O)(=O)c2cc(N3CCC4(CCCO4)CC3)c3cnn(-c4nnc(C(F)F)s4)c3c2)CC1 [Example 44]
6.00 to 6.52

Give the measured pIC50 for CN(C)C(=O)N1CCN(c2cc(S(=O)(=O)NC3(C#N)CC3)cc3c2cnn3-c2nnc(C(F)F)s2)CC1 [Example 43]
≥ 7.00

Complete the entry with pIC50 for N#CC1(NS(=O)(=O)c2cc(N3CCN(C(=O)C4CC4)CC3)c3cnn(-c4nnc(C(F)F)s4)c3c2)CC1 [Example 80]
≥ 7.00

Assign pIC50 to the following record: CN1Cc2cn(-c3cc(S(=O)(=O)NC4(C#N)CC4)cc4c3cnn4-c3nnc(C(F)F)s3)nc2C1 [Example 73]
6.52 to 7.00
